- Test system: HTT CJ mRNA
- experiment_summary: Gene panel canonical junction qPCR assay: HTT
- Format: cell-based
- condition_description: Table 3, concentration having 50% response in CJ decrease, read-out: HTT IC50 (decrease in CJ mRNA levels)
Entries and their IC50 values follow.

>  <compound>
Cc1cn2cc(NC(=O)c3cc(Cl)c(C4CCNCC4)s3)cc(F)c2n1 [Compound 193]

>  <study_target>
HTT CJ mRNA

>  <data_value>
> 10 nM

$$$$

The compound identified as Cc1nc2c(F)cc(NC(=O)c3sc(C4CCNCC4)cc3F)cc2o1 [Compound 184] registered its IC50 at 100 to 1000 nM

Summary for this compound, Cc1cn2cc(NC(=O)c3sc([C@@H]4CCN[C@@H](C)C4)cc3F)cc(F)c2n1 [Compound 116] : IC50 is 100 to 1000 nM

// IC50 value for Cc1cn2nc(NC(=O)c3sc(C4CCNCC4)cc3F)nc2c(C)n1 [Compound 192] : > 10 nM

Per the record, Cc1cn2cc(NC(=O)c3sc(N4CCNC(C)C4)cc3F)cc(C)c2n1 (centres unmarked) [Compound 172] has IC50 of > 10 nM
